Where do these numbers come from? They come from paper PMC10663500.

# log10 koff values compiled below
- Target Or System: T1, human programmed cell death protein 1 (hPD-1) C93S (aa 24-167) (Homo sapiens, UniProt Q15116, C93S)
- T1 construct: made as a fusion with a TEV site and human Fc; the Fc was cut off with TEV protease; source: Expi293F, purified (Protein A, TEV cleavage of Fc, SEC; monomer fractions); not shown: Fc (human), C-terminal, cleaved
- T1 sequence (Q15116 24-167 C93S): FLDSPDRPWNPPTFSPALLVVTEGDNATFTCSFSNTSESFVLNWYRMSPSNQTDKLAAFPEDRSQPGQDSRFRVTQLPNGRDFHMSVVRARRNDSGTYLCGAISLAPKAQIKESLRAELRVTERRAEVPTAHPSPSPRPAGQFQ
- Protocol Text: SPR; Carterra LSA; Fab from the ammonium sulfate precipitate of the culture supernatant immobilised on a NiHC200M chip; hPD-1 (1-1024 nM) or mPD-1-Fc (4-1024 nM) as analyte, fourfold dilution series, no regeneration; HBS-EP pH 7.4, 25 °C; medians over the spots of a construct, KD = koff/kon
- Cond: one partner purified
A difference of one corresponds to tenfold koff; all values are log10 with koff in s⁻¹.

Example binders with recorded log10 koff:
1. toripalimab Fab L.H31A (Fab, V domains shown, as the heavy chain of Sm3; light chain of Sm3 with this change; numbers count from the chain's first residue; source: Brevibacillus, culture supernatant (ammonium sulfate precipitate); not shown: 6xHis, C-terminal, kept; 6xHN, C-terminal, kept) VH: QGQLVQSGAEVKKPGASVKVSCKASGYTFTDYEMHWVRQAPIHGLEWIGVIESETGGTAYNQKFKGRVTITADKSTSTAYMELSSLRSEDTAVYYCAREGITTVATTYYWYFDVWGQGTTVTVSS VL: DVVMTQSPLSLPVTLGQPASISCRSSQSIVASNGNTYLEWYLQKPGQSPQLLIYKVSNRFSGVPDRFSGSGSGTDFTLKISRVEAEDVGVYYCFQGSHVPLTFGQGTKLEIK; -3.23
2. toripalimab Fab L.S25Y (Fab, V domains shown, as the heavy chain of Sm3; light chain of Sm3 with this change; numbers count from the chain's first residue; source: Brevibacillus, culture supernatant (ammonium sulfate precipitate); not shown: 6xHis, C-terminal, kept; 6xHN, C-terminal, kept) VH: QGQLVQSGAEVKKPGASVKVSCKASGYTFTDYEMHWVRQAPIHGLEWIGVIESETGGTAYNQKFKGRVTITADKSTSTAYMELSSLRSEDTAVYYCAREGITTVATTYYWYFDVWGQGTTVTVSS VL: DVVMTQSPLSLPVTLGQPASISCRYSQSIVHSNGNTYLEWYLQKPGQSPQLLIYKVSNRFSGVPDRFSGSGSGTDFTLKISRVEAEDVGVYYCFQGSHVPLTFGQGTKLEIK; -4.93
3. toripalimab Fab L.E39A (Fab, V domains shown, as the heavy chain of Sm3; light chain of Sm3 with this change; numbers count from the chain's first residue; source: Brevibacillus, culture supernatant (ammonium sulfate precipitate); not shown: 6xHis, C-terminal, kept; 6xHN, C-terminal, kept) VH: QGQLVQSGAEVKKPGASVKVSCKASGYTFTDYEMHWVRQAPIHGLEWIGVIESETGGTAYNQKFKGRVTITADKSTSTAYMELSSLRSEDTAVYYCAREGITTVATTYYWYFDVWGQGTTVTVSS VL: DVVMTQSPLSLPVTLGQPASISCRSSQSIVHSNGNTYLAWYLQKPGQSPQLLIYKVSNRFSGVPDRFSGSGSGTDFTLKISRVEAEDVGVYYCFQGSHVPLTFGQGTKLEIK; -3.69
4. toripalimab Fab L.P100L (Fab, V domains shown, as the heavy chain of Sm3; light chain of Sm3 with this change; numbers count from the chain's first residue; source: Brevibacillus, culture supernatant (ammonium sulfate precipitate); not shown: 6xHis, C-terminal, kept; 6xHN, C-terminal, kept) VH: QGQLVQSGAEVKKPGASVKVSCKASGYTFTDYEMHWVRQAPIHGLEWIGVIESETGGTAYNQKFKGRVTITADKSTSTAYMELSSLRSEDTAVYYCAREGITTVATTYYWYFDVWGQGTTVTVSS VL: DVVMTQSPLSLPVTLGQPASISCRSSQSIVHSNGNTYLEWYLQKPGQSPQLLIYKVSNRFSGVPDRFSGSGSGTDFTLKISRVEAEDVGVYYCFQGSHVLLTFGQGTKLEIK; -3.89
5. toripalimab Fab H.Y32A (Fab, V domains shown, heavy chain of Sm3 with this change; numbers count from the chain's first residue; as the light chain of Sm3; source: Brevibacillus, culture supernatant (ammonium sulfate precipitate); not shown: 6xHis, C-terminal, kept; 6xHN, C-terminal, kept) VH: QGQLVQSGAEVKKPGASVKVSCKASGYTFTDAEMHWVRQAPIHGLEWIGVIESETGGTAYNQKFKGRVTITADKSTSTAYMELSSLRSEDTAVYYCAREGITTVATTYYWYFDVWGQGTTVTVSS VL: DVVMTQSPLSLPVTLGQPASISCRSSQSIVHSNGNTYLEWYLQKPGQSPQLLIYKVSNRFSGVPDRFSGSGSGTDFTLKISRVEAEDVGVYYCFQGSHVPLTFGQGTKLEIK; -4.13

From here, focus on the item given below.
**Q:** Name the recorded log10 koff for toripalimab Fab L.L101H (Fab, V domains shown, as the heavy chain of Sm3; light chain of Sm3 with this change; numbers count from the chain's first residue; source: Brevibacillus, culture supernatant (ammonium sulfate precipitate); not shown: 6xHis, C-terminal, kept; 6xHN, C-terminal, kept) VH: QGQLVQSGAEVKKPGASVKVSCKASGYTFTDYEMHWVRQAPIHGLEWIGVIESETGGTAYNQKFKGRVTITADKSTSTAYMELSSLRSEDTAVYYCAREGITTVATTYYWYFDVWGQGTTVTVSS VL: DVVMTQSPLSLPVTLGQPASISCRSSQSIVHSNGNTYLEWYLQKPGQSPQLLIYKVSNRFSGVPDRFSGSGSGTDFTLKISRVEAEDVGVYYCFQGSHVPHTFGQGTKLEIK .
**A:** -2.95
